# System: F1*sub RNA substrate (template-directed ligation)
# measurement-protocol: fraction ligated after 30 min (ligated reads / total reads); higher = more ligase activity; sequences stand for … in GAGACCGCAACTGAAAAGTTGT…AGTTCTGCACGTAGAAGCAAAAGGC
# particulars: 42 °C
Rule: fraction ligated under 0.7 gives NOT MET, otherwise MET.

The following sequences have reported results that may help.
- biosequence: "TACACTTGTCGTAAGACCTTTGGTGGGTTGA [3d702]"
  label: "NOT MET"
- biosequence: "TATCACTTGTCGTAGACACTTTGGATGGTTG [3d2056]"
  label: "NOT MET"
- biosequence: "TATACTTGTCGTAAGCACTTTGGTGGGTTGA [3d898]"
  label: "NOT MET"
- biosequence: "TATCACTTGTCGTAAGAACTTTGGATGGTTGA [2d259]"
  label: "NOT MET"
- biosequence: "TATCCTTGTCGTAAGCACTTTGGATGGGTTG [3d1074]"
  label: "MET"

Can TATCACTTGTCGTAAACACTTTGGATGGTTA [3d2101] be said to have fraction ligated at or above 0.7?
NOT MET

Determine whether measured fraction ligated meets or exceeds 0.7 for TACACTTGTCTAAGCACTTTGGATGGGTTGA [3d635]
NOT MET

Exam item: decide whether the reported fraction ligated for TATCACTTGTGTAAGACACTGGATGGGTTGA [3d1786] is at least 0.7.
MET

hey, is fraction ligated for this one >= 0.7? TATCACTTTCGTAGACACTTTGGATGGTTGA [3d1516]
NOT MET

Determine whether measured fraction ligated meets or exceeds 0.7 for ATCACTTGTCGTAAGAACTTTGGATGGGTTA [3d237]
NOT MET

Is fraction ligated at least 0.7? Consider TATACTTCGTAAGACACTTTGGATGGGTTGA [3d778]
MET

Hi, just wondering whether TATCACTTTCGTAAGACACTTTGGAGGGTTG [3d1580] shows fraction ligated of 0.7 or higher.
NOT MET

Threshold query (fraction ligated >= 0.7) on TATCACTTGCGTAAACACTTTGATGGGTTGA [3d1643]
MET

Check this sequence for fraction ligated at or above 0.7: TATCACTTGTCGTAAACCTTTGGTGGGTTGA [3d2069]
NOT MET

I'd appreciate it if you could say whether TATCACTTGTCGTAAGCACTTTGGATGGGTTA [2d252] has fraction ligated at least equal to 0.7.
MET

Given the entry TTCACTTGCGTAAGCACTTTGGATGGGTTGA [3d376] , answer whether its fraction ligated meets or surpasses 0.7.
MET

Threshold query (fraction ligated >= 0.7) on TATCACTGTCGTAGACACTTTGGATGGGTTA [3d1396]
MET

Does the sequence TATCACTTGTCTAAGACATTTGGTGGGTTGA [3d1873] have recorded fraction ligated that is 0.7 or more?
NOT MET

API: above_or_equal(metric=fraction ligated, cutoff=0.7) for item TATCACTTGTCGTAGACACTTGGATGGGTTG [3d2041]
MET

Confirm if fraction ligated reported for the sequence ATCACTTGTCGTAAGAACTTTGGATGGGTTGA [2d15] is 0.7 or above.
MET

Identify whether the reported fraction ligated of the following sequence is 0.7 or greater: TATCACTTGTCGTAAGACTTTGGATGGGTTA [3d2112]
MET

State whether the measured fraction ligated reaches 0.7, counting equality as reaching it, for TATACTTTCGTAAGACCTTTGGATGGGTTGA [3d803]
NOT MET

Values from the supplement of paper PMC6755084
